Molecular target: Bcl-2-like protein 10 (Homo sapiens) (UniProt Q9HD36)
Sequence (Q9HD36 whole entry, looked up): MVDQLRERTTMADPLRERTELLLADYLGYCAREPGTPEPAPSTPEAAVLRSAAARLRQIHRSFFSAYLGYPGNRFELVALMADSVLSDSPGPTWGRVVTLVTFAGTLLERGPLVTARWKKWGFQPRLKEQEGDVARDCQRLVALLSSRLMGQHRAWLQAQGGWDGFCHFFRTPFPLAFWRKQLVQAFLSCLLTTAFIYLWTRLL
Assay: TR3 peptide-Bcl-B binding displacers, biochemical primary FP assay, phenotype converters (AID 1240);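 further: 0% = Bcl-B with tracer peptide and DMSO and 100% = tracer peptide lacking Bcl-B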
Conditions: GST-Bcl-B / FITC-TR3 peptide fluorescence polarization; stronger effect = higher value; compound at 3.75 mg/L
The whole screen tested about 50,000 compounds, of which about 800 (1.6%) showed an effect of 50% or more. The list comes from a sample in which strong results are over-represented; it also holds close analogues and randomly drawn compounds.
Listing of recorded displacement by entry.

Query: Would you kindly share the measured displacement for O=S(=O)(c1ccc2ccccc2c1)N1CCC(Cc2ccccc2)CC1 ?
Result: -21.4%

Query: Next compound up: CCOC(=O)C1=C(O)/C(=C/c2ccc(F)cc2)SC1=Nc1ccccc1
Result: -10.3%

Query: Next compound up: CCN(CC)CCCCOc1ccc(Cl)c(C)c1
Result: -10.7%

Query: Next compound up: COc1ccc(Cl)cc1NC(=O)c1cccc(F)c1
Result: -13.8%

Query: Next compound up: COC(=O)c1c(N)sc(C)c1-c1ccc(C)cc1C
Result: -10.6%
